Hi there, I'd appreciate the recorded shrunken log2 fold change for every entry that follows.
# Tested on: Escherichia coli TOP10
# experiment notes: shrunken log2 fold change of peptide-encoding DNA abundance (4.5 h post-induction vs induction); higher = less antimicrobial activity (less host growth inhibition)
# run conditions: time post-induction: 4.5 h; library: site-saturation at positions 5, 18, 19, 20
Just the number, please, no unit attached.

Give me measured shrunken log2 fold change, please, for this sequence: RRIRSRPPRLPRPRPRPFNKPRP
-0.81

Give me measured shrunken log2 fold change, please, for this sequence: RRIRVRPPRLPRPRPRPVPLPRP
-0.121

Give me measured shrunken log2 fold change, please, for this sequence: RRIRHRPPRLPRPRPRPDQLPRP
-0.51

Give me measured shrunken log2 fold change, please, for this sequence: RRIRTRPPRLPRPRPRPAQHPRP
0.0266

Give me measured shrunken log2 fold change, please, for this sequence: RRIRWRPPRLPRPRPRPEEGPRP
-0.00968

Give me measured shrunken log2 fold change, please, for this sequence: RRIRYRPPRLPRPRPRPDTKPRP
-0.0212

Give me measured shrunken log2 fold change, please, for this sequence: RRIRCRPPRLPRPRPRPQEIPRP
-0.0405

====

# System: Escherichia coli TOP10
# experiment notes: shrunken log2 fold change of peptide-encoding DNA abundance (4.5 h post-induction vs induction); higher = less antimicrobial activity (less host growth inhibition)
# run conditions: time post-induction: 4.5 h; library: site-saturation at positions 5, 18, 19, 20
measured endpoint: shrunken log2 fold change

Give me measured shrunken log2 fold change, please, for this sequence: RRIRTRPPRLPRPRPRPEVVPRP
0.292

Give me measured shrunken log2 fold change, please, for this sequence: RRIRMRPPRLPRPRPRPSSKPRP
1.87

Give me measured shrunken log2 fold change, please, for this sequence: RRIRKRPPRLPRPRPRPNQSPRP
0.341

Give me measured shrunken log2 fold change, please, for this sequence: RRIRPRPPRLPRPRPRPKQWPRP
-0.22

Give me measured shrunken log2 fold change, please, for this sequence: RRIRDRPPRLPRPRPRPKYAPRP
0.0137

Give me measured shrunken log2 fold change, please, for this sequence: RRIRMRPPRLPRPRPRPQQTPRP
1.14

Give me measured shrunken log2 fold change, please, for this sequence: RRIRMRPPRLPRPRPRPEKYPRP
0.746

Give me measured shrunken log2 fold change, please, for this sequence: RRIRFRPPRLPRPRPRPWTKPRP
0.0163

Give me measured shrunken log2 fold change, please, for this sequence: RRIRMRPPRLPRPRPRPLRVPRP
1.14

Give me measured shrunken log2 fold change, please, for this sequence: RRIRKRPPRLPRPRPRPNGIPRP
-0.029

Give me measured shrunken log2 fold change, please, for this sequence: RRIRWRPPRLPRPRPRPQFPPRP
0.0157

Give me measured shrunken log2 fold change, please, for this sequence: RRIRYRPPRLPRPRPRPFMTPRP
-2.5

Give me measured shrunken log2 fold change, please, for this sequence: RRIRPRPPRLPRPRPRPCLSPRP
-0.143

Give me measured shrunken log2 fold change, please, for this sequence: RRIRDRPPRLPRPRPRPFTKPRP
-0.262

Give me measured shrunken log2 fold change, please, for this sequence: RRIRNRPPRLPRPRPRPFTCPRP
-0.215

Give me measured shrunken log2 fold change, please, for this sequence: RRIRPRPPRLPRPRPRPCHDPRP
-0.097

Give me measured shrunken log2 fold change, please, for this sequence: RRIRHRPPRLPRPRPRPMIQPRP
-0.0673

Give me measured shrunken log2 fold change, please, for this sequence: RRIRNRPPRLPRPRPRPQSSPRP
-0.0447

Give me measured shrunken log2 fold change, please, for this sequence: RRIRVRPPRLPRPRPRPQDKPRP
-0.603

Give me measured shrunken log2 fold change, please, for this sequence: RRIRKRPPRLPRPRPRPPKGPRP
0.333

Give me measured shrunken log2 fold change, please, for this sequence: RRIRWRPPRLPRPRPRPWEVPRP
-0.0113

Give me measured shrunken log2 fold change, please, for this sequence: RRIRTRPPRLPRPRPRPYCAPRP
-0.732

Give me measured shrunken log2 fold change, please, for this sequence: RRIRIRPPRLPRPRPRPAVSPRP
-0.0873

Give me measured shrunken log2 fold change, please, for this sequence: RRIRARPPRLPRPRPRPQAWPRP
0.376

Give me measured shrunken log2 fold change, please, for this sequence: RRIRNRPPRLPRPRPRPKFRPRP
0.00344

Give me measured shrunken log2 fold change, please, for this sequence: RRIRERPPRLPRPRPRPGDDPRP
-0.152

Give me measured shrunken log2 fold change, please, for this sequence: RRIRSRPPRLPRPRPRPVATPRP
0.707

Give me measured shrunken log2 fold change, please, for this sequence: RRIRLRPPRLPRPRPRPMQTPRP
0.0393

Give me measured shrunken log2 fold change, please, for this sequence: RRIRVRPPRLPRPRPRPYMGPRP
-0.895

Give me measured shrunken log2 fold change, please, for this sequence: RRIRRRPPRLPRPRPRPTQNPRP
1.03

Give me measured shrunken log2 fold change, please, for this sequence: RRIRRRPPRLPRPRPRPFSVPRP
0.0458

====

# Test system: Escherichia coli TOP10
# experiment notes: shrunken log2 fold change of peptide-encoding DNA abundance (4.5 h post-induction vs induction); higher = less antimicrobial activity (less host growth inhibition)
# run conditions: time post-induction: 4.5 h; library: site-saturation at positions 5, 18, 19, 20
Response key: yes means shrunken log2 fold change >= -0.2; no means shrunken log2 fold change < -0.2.

API: above_or_equal(metric=shrunken log2 fold change, cutoff=-0.2) for item RRIRMRPPRLPRPRPRPKRQPRP
yes

API: above_or_equal(metric=shrunken log2 fold change, cutoff=-0.2) for item RRIRPRPPRLPRPRPRPHPDPRP
yes

API: above_or_equal(metric=shrunken log2 fold change, cutoff=-0.2) for item RRIRIRPPRLPRPRPRPDWVPRP
yes

API: above_or_equal(metric=shrunken log2 fold change, cutoff=-0.2) for item RRIRPRPPRLPRPRPRPMVFPRP
yes

API: above_or_equal(metric=shrunken log2 fold change, cutoff=-0.2) for item RRIRYRPPRLPRPRPRPLSYPRP
no

API: above_or_equal(metric=shrunken log2 fold change, cutoff=-0.2) for item RRIRCRPPRLPRPRPRPKDYPRP
no

API: above_or_equal(metric=shrunken log2 fold change, cutoff=-0.2) for item RRIRERPPRLPRPRPRPTKNPRP
yes

API: above_or_equal(metric=shrunken log2 fold change, cutoff=-0.2) for item RRIRFRPPRLPRPRPRPLSHPRP
no

API: above_or_equal(metric=shrunken log2 fold change, cutoff=-0.2) for item RRIRTRPPRLPRPRPRPWHSPRP
no

API: above_or_equal(metric=shrunken log2 fold change, cutoff=-0.2) for item RRIRARPPRLPRPRPRPEQLPRP
yes

API: above_or_equal(metric=shrunken log2 fold change, cutoff=-0.2) for item RRIRSRPPRLPRPRPRPGRVPRP
yes

API: above_or_equal(metric=shrunken log2 fold change, cutoff=-0.2) for item RRIRQRPPRLPRPRPRPYGEPRP
yes

API: above_or_equal(metric=shrunken log2 fold change, cutoff=-0.2) for item RRIRFRPPRLPRPRPRPRRLPRP
yes

API: above_or_equal(metric=shrunken log2 fold change, cutoff=-0.2) for item RRIRDRPPRLPRPRPRPAPSPRP
yes

API: above_or_equal(metric=shrunken log2 fold change, cutoff=-0.2) for item RRIRFRPPRLPRPRPRPYNLPRP
no

API: above_or_equal(metric=shrunken log2 fold change, cutoff=-0.2) for item RRIRDRPPRLPRPRPRPRVSPRP
yes

====

Hi there, I'd appreciate the recorded shrunken log2 fold change for every entry that follows.
# System: Escherichia coli TOP10;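 note: peptides expressed intracellularly from a pBAD plasmid library in pooled LB shake-flask culture, induced with 0.3% L-arabinose, DNA abundance read by NGS, three biological replicates, DESeq2 with apeglm shrinkage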
# experiment notes: shrunken log2 fold change of peptide-encoding DNA abundance (4.5 h post-induction vs induction); higher = less antimicrobial activity (less host growth inhibition)
# run conditions: time post-induction: 4.5 h; library: site-saturation at positions 5, 18, 19, 20

Give me measured shrunken log2 fold change, please, for this sequence: RRIRLRPPRLPRPRPRPKNYPRP
-0.458

Give me measured shrunken log2 fold change, please, for this sequence: RRIRTRPPRLPRPRPRPWWIPRP
-0.869

Give me measured shrunken log2 fold change, please, for this sequence: RRIRARPPRLPRPRPRPQRQPRP
0.24

Give me measured shrunken log2 fold change, please, for this sequence: RRIRTRPPRLPRPRPRPMILPRP
-0.0648

Give me measured shrunken log2 fold change, please, for this sequence: RRIRTRPPRLPRPRPRPCQMPRP
-0.267

Give me measured shrunken log2 fold change, please, for this sequence: RRIRLRPPRLPRPRPRPGGKPRP
-0.00333

Give me measured shrunken log2 fold change, please, for this sequence: RRIRERPPRLPRPRPRPATFPRP
-0.177

Give me measured shrunken log2 fold change, please, for this sequence: RRIRHRPPRLPRPRPRPLHAPRP
0.297

Give me measured shrunken log2 fold change, please, for this sequence: RRIRNRPPRLPRPRPRPNCGPRP
0.0526

Give me measured shrunken log2 fold change, please, for this sequence: RRIRRRPPRLPRPRPRPIGDPRP
0.257

Give me measured shrunken log2 fold change, please, for this sequence: RRIRWRPPRLPRPRPRPRWNPRP
-0.0693

Give me measured shrunken log2 fold change, please, for this sequence: RRIRDRPPRLPRPRPRPYPIPRP
0.0369

Give me measured shrunken log2 fold change, please, for this sequence: RRIRCRPPRLPRPRPRPKLIPRP
-0.0459

Give me measured shrunken log2 fold change, please, for this sequence: RRIRERPPRLPRPRPRPTPHPRP
0.308

Give me measured shrunken log2 fold change, please, for this sequence: RRIRARPPRLPRPRPRPNQVPRP
-0.0439

Give me measured shrunken log2 fold change, please, for this sequence: RRIRCRPPRLPRPRPRPPCCPRP
0.021

Give me measured shrunken log2 fold change, please, for this sequence: RRIRRRPPRLPRPRPRPCHQPRP
-0.172

Give me measured shrunken log2 fold change, please, for this sequence: RRIRRRPPRLPRPRPRPGMHPRP
0.217

Give me measured shrunken log2 fold change, please, for this sequence: RRIRTRPPRLPRPRPRPPELPRP
0.194

Give me measured shrunken log2 fold change, please, for this sequence: RRIRSRPPRLPRPRPRPCNQPRP
-0.391

Give me measured shrunken log2 fold change, please, for this sequence: RRIRERPPRLPRPRPRPWQQPRP
0.015

Give me measured shrunken log2 fold change, please, for this sequence: RRIRIRPPRLPRPRPRPARNPRP
-0.179

Give me measured shrunken log2 fold change, please, for this sequence: RRIRNRPPRLPRPRPRPYVEPRP
-0.00677

Give me measured shrunken log2 fold change, please, for this sequence: RRIRVRPPRLPRPRPRPRLYPRP
0.13

Give me measured shrunken log2 fold change, please, for this sequence: RRIRRRPPRLPRPRPRPLPSPRP
0.752

Give me measured shrunken log2 fold change, please, for this sequence: RRIRLRPPRLPRPRPRPWDTPRP
0.0949

Give me measured shrunken log2 fold change, please, for this sequence: RRIRVRPPRLPRPRPRPSPRPRP
0.415

Give me measured shrunken log2 fold change, please, for this sequence: RRIRSRPPRLPRPRPRPRVLPRP
-0.285

Give me measured shrunken log2 fold change, please, for this sequence: RRIRDRPPRLPRPRPRPMSEPRP
-0.00582

Give me measured shrunken log2 fold change, please, for this sequence: RRIRDRPPRLPRPRPRPDPEPRP
0.0311

Give me measured shrunken log2 fold change, please, for this sequence: RRIRIRPPRLPRPRPRPKQGPRP
0.391

Give me measured shrunken log2 fold change, please, for this sequence: RRIRRRPPRLPRPRPRPLDGPRP
0.0894

Give me measured shrunken log2 fold change, please, for this sequence: RRIRRRPPRLPRPRPRPYDSPRP
-0.545

Give me measured shrunken log2 fold change, please, for this sequence: RRIRGRPPRLPRPRPRPESIPRP
0.483

Give me measured shrunken log2 fold change, please, for this sequence: RRIRKRPPRLPRPRPRPSCAPRP
0.523
